# System: HT29 colon
# assay-text: NCI-60 one-dose screen, 48 h
# experimental-context: 10 µM unless noted
Compounds without any hit were thinned out: in the full panel of roughly 83,000, 20% have a hit. Calls of active or inactive are those of the source. Rule for the calls: active = growth percent below 10; inactive = the rest.
Possible outcomes: active, inactive

{"smiles-text": "N/C(=N\\c1nc2c(Cl)cc(Cl)cc2s1)C(Cl)(Cl)Cl", "group-label": "active"}
{"smiles-text": "COc1ccc2[nH]cc(-c3cc(N)n4nc(-c5c[nH]c6ccc(OC)cc56)cc4n3)c2c1", "group-label": "active"}
{"smiles-text": "O=C(CSc1nc2sc3c(c2c(=O)n1-c1ccc(Cl)cc1)CCCC3)NNC(=O)Nc1ccc(Cl)c(C(F)(F)F)c1", "group-label": "active"}
{"smiles-text": "COc1ccc(NC2=C(Cl)C(=O)C(C)=C(C)C2=O)cc1OC", "group-label": "inactive"}
{"smiles-text": "CN(C)CCCOc1c2ccccc2nc2c1oc1ccc(Cl)cc12", "group-label": "active"}
